- System: K562 human promyelocytic leukemia cell line
- protocolDetails: MTT cell growth inhibition by adriamycin with or without compound 1, K562
- Assay type: cell-based
- particulars: K562, K562, with compound 1, n = 1, read-out: 50% cell growth inhibiting concentration (IC50) of adriamycin
experimentalReadout: IC50 (nM)
Write the value in nM as a bare number.

Challenge: Assign IC50 to the following record: COc1cccc2c1C(=O)c1c(O)c3c(c(O)c1C2=O)C[C@@](O)(C(=O)CO)C[C@@H]3O[C@H]1C[C@H](N)[C@H](O)[C@H](C)O1
Response given: 4

====

- Tested on: PC-14 human non-small cell lung cancer cell line
- protocolDetails: MTT cell growth inhibition by anticancer drug with or without compound 1, PC-14
- Format: cell-based
- particulars: PC-14, with compound 1 (final concentration 10 μm), 96 hours, read-out: 50% cell growth inhibiting concentration (IC50) of anticancer drug
experimentalReadout: pIC50
# reply with the number alone; pIC50 is -log10 of concentration in mol/L

Some solved entries appear below for comparison.
> print(dat)
                                compound  experimentalreadout  resultvalue
1  N.N.O=C([O-])C1(C(=O)[O-])CCC1.[Pt+2]                pIC50         4.53
2           N.N.[Cl][Pt][Cl] [cisplatin]                pIC50         5.75

Pending compound:
Challenge: Given [NH2][Pt]1([NH2])[O]CC(=O)[O]1 , report its pIC50 on PC-14 human non-small cell lung cancer cell line.
Response given: 5.36
